Values from PubChem BioAssay (NCI)

Assign growth to each entry below.
test system: BT-549 breast; experiment: NCI-60 one-dose screen, 48 h (100 = growth as untreated, 0 = no growth, -100 = all killed); details: 10 µM unless noted
About 83,000 compounds went through this panel and 20% of them were active in at least one assay; those are over-represented in the sample as a whole.
Please reply with the bare figure in % and do not write the unit itself.

# compound COc1ccc(-c2cc(C(=O)N=Nc3c(O)[nH]c4ccc(Cl)cc34)c3ccccc3n2)cc1OC ; its growth = 113

# compound COC(=O)CSC1=C(C)C(=O)C(OC)=C(OC)C1=O ; its growth = 79

# compound O=CNc1cccc(-n2cnc3cc(-c4ccc(O)cc4)ccc32)c1 ; its growth = 52.6

# compound COc1ccc(SC2c3cc(OC)ccc3Oc3nc(N)c(C#N)c(N)c32)cc1 (stereo not given) ; its growth = 24.5

# compound Cc1[nH]nc2ccc3nc(-c4cnn(CCO)c4)c4c(c3c12)CCCC4 ; its growth = 46.3

# compound CS(=O)(=O)Nc1cc(-c2ccc3ncnc(Nc4ccc(OCc5cccnc5)c(Cl)c4)c3c2)cnc1Cl ; its growth = -55.6

# compound COc1ccc(S(=O)(=O)Nc2ccc(-c3ccc4c(c3)NC(=O)/C4=C\c3ccc[nH]3)cc2)cc1OC ; its growth = 13.3

# compound CC1=C(C(=O)OCc2ccccc2)C(c2cccc3ccccc23)n2c(nc3ccccc32)N1 (stereo not given) ; its growth = 25

# compound Cc1ccc(C(=O)Nc2cc(-c3ccncc3)cc(C(F)(F)F)c2)cc1C#Cc1cnc2cccnn12 ; its growth = 86.8

# compound COc1ccc(-c2cc(C)nc3[nH]c(=O)sc23)cc1 ; its growth = 58.9
